Answer each item with its documented GI50.
- Test system: HOP-62
- ASSAY: NCI tumour cell line growth inhibition, 48 h
Counter-ions that a name gives are not always drawn. Activity calls are given as the source filed them. Rule as the data show it: active = GI50 up to about 1.1 µM and inactive = higher.

Give the measured GI50 of CCCCC/C(C=O)=C\c1ccccc1 . > 100 µM (inactive)

// lookup GI50 for COc1ccc(/C=C(/C#N)C(N)=O)c(OC)c1 > 100 µM (inactive)

Recorded GI50 of N#CC1=C(S)N(C2OC(CO)C(O)C(O)C2O)C(c2ccccc2)=CC1c1ccccc1 (stereo unspecified) , please. > 100 µM (inactive)

Given CCCC(=O)NC(Nc1ccc(S(=O)(=O)Nc2ccc(OC)nn2)cc1)(C(F)(F)F)C(F)(F)F , state its recorded GI50. > 100 µM (inactive)

Requested field: GI50. Item: CN(C)CCOc1ccc(/C(=C(/CCCl)c2ccccc2)c2ccccc2)cc1 [TOREMIFENE CITRATE] 15.5 µM (inactive)

Entry O=c1[nH]c2cc(C(F)(F)F)ccc2nc1Cc1ccccc1 : reported GI50 = ? 28.9 µM (inactive)

Would you mind telling me what GI50 value was observed for C[N+]1(C)C/C(=C\c2ccccc2)C(=O)/C(=C/c2ccccc2)C1 ? > 100 µM (inactive)

Which value of GI50 has been reported for C/C(=N/c1[nH]c(=O)cc2c1C(=O)CC2)N(C)C in the records? > 200 µM (inactive)

Please look up its GI50: CC(=O)O/C(C)=C\C(=O)O/N=C(\N)c1ccc(C)cc1 33.1 µM (inactive)

// returns reported GI50 for input CCCCCCCCCCCCCCCCNc1cccc2ccccc12 > 100 µM (inactive)

I have this compound here, COc1ccc(OC)c2c(=S)c3ccccc3[nH]c12 , and I need its recorded GI50. > 100 µM (inactive)

---

- Test system: K562
- ASSAY: NCI tumour cell line growth inhibition, 48 h
Calls of active or inactive are those of the source. No stated cut-off is given here; in the data, active = GI50 up to about 1.1 µM and inactive = higher.
Choose one outcome from this list and give only that: active, inactive

For COc1ccc(CC2NC(=O)/C=C/CC(C(C)C3OC3c3ccccc3)OC(=O)C(CC(C)C)OC(=O)C(C)CNC2=O)cc1Cl (stereo not given) , what call appears in the results of this test? active

I would be grateful if you could indicate the recorded call for CC(=O)N/C(=C\c1ccc(/C=C(\NC(C)=O)c2nc3cc(Cl)ccc3[nH]2)cc1)c1nc2ccccc2[nH]1 . inactive

Could you kindly confirm the outcome this assay logged for CCCCCCCCCc1c(Cl)nc(Cl)nc1Cl ? inactive

What was the test verdict on COc1ccc([C@H]2CC(=O)C[C@H](c3ccc(OC)cc3)C23C(=O)c2ccccc2C3=O)cc1 ? inactive

Each compound tested received a call. Report the one for CC(C)(C)OC(=O)NC(Cc1ccc(OCc2ccccc2)cn1)C(N)=O (stereo not given) . inactive

Identify the outcome logged in this assay for the compound shown: O=[N+]([O-])C(/C(Cl)=C(/Cl)N1CCOCC1)=C1\Nc2ccccc2O1 inactive

Per the assay record, what outcome was assigned to C/C(=N/c1[nH]c(=O)cc2c1C(=O)CC2)N(C)C ? inactive

Check the results log: what was the call for COc1cc(OC)c2c(=O)c(O)c(-c3ccc(OC)c(OC)c3)oc2c1 ? inactive

What outcome does the record of this test show for COc1cc(/C=C2\N=C(C)N(n3c(-c4ccccc4)nc4ccccc4c3=O)C2=O)cc(OC)c1OC ? inactive

I'd appreciate the recorded outcome for C[N+]1(C)CCc2cc(O)c(O)cc2C1Cc1ccc(O)c(O)c1 (stereo not given) from this test. inactive
